# Test Target: BRAF G466V (Homo sapiens, UniProt P15056, G466V)
# Construct: Horizon Discovery (HCT-116 BRAF−/− cells); host or cells: HCT-116 BRAF−/− cells, clone 8, lentiviral transduction
# Sequence (P15056 whole entry G466V): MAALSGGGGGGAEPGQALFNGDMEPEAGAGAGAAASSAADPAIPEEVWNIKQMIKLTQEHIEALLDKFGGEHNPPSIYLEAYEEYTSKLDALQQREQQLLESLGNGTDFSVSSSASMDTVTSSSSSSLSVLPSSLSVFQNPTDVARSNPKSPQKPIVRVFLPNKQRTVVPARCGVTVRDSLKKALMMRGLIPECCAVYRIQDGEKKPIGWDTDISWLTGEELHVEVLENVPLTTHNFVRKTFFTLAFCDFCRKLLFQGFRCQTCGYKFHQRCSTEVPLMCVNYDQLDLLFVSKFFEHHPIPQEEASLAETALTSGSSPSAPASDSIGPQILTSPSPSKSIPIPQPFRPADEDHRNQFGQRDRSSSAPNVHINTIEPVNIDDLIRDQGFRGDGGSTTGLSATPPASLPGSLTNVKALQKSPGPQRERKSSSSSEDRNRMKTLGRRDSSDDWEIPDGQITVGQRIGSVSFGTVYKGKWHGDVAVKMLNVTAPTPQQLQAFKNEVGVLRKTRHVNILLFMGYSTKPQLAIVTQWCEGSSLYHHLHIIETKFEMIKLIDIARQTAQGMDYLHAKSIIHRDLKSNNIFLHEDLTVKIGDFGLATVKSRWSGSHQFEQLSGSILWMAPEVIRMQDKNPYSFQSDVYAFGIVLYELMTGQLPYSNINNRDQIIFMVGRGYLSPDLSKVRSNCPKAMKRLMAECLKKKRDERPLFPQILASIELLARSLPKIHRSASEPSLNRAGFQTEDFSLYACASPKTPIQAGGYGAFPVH
# Protocol Notes: BRAF HiBiT degradation assay, C-terminal HiBiT-tagged BRAF G466V overexpressed in HCT-116 BRAF−/− cells (clone 8), Nano-Glo HiBiT Lytic assay
# Format: cell-based
# Measurement Context: BRAF G466V (Class 3), HCT-116 BRAF−/− cells; DC50 at 50% degradation
Readout Kind: DC50

compound="O=C1CC[C@H](c2ccc(N3CCC(CN4CCN(c5ccc(-n6cc(-c7cc(Cl)cc(NS(=O)(=O)N8CCCC8)c7F)c(-c7ccncc7)n6)cn5)CC4)CC3)cc2)C(=O)N1 [Compound 351]" observed_result="< 10 nM"
compound="C[C@@H]1CN(c2ccc(-n3cc(-c4cc(Cl)cc(NS(=O)(=O)N5CC[C@@H](F)C5)c4F)c(-c4ccncc4)n3)nc2)CCN1CC1CCN(c2ccc(N3CCC(=O)NC3=O)cc2)CC1 [Compound 322]" observed_result="< 10 nM"
compound="CCN(C)S(=O)(=O)Nc1cc(Cl)cc(-c2cn(-c3ccc(N4CCN(CC5CCN(c6ccc([C@H]7CCC(=O)NC7=O)cn6)CC5)CC4)cc3)nc2-c2ccncc2)c1F [Compound 309]" observed_result="< 10 nM"

* * *

# Test Target: BRAF D594G (Homo sapiens, UniProt P15056, D594G)
# Construct: Horizon Discovery (HCT-116 BRAF−/− cells); host or cells: HCT-116 BRAF−/− cells, clone 63, lentiviral transduction
# Sequence (P15056 whole entry D594G): as the sequence (P15056 whole entry G466V) above, with V466G, D594G counted along it
# Protocol Notes: BRAF HiBiT degradation assay, C-terminal HiBiT-tagged BRAF D594G overexpressed in HCT-116 BRAF−/− cells (clone 63), Nano-Glo HiBiT Lytic assay
# Assay type: cell-based
# Measurement Context: BRAF D594G (Class 3), HCT-116 BRAF−/− cells; observed Dmax relative to DMSO control
Collected Dmax values appear next to each entry.
Readout Kind: Dmax

molecule="O=C1CCC(c2ccc(N3CCC(CN4CCN(c5ccc(-n6cc(-c7cc(F)cc(NS(=O)(=O)N8CC[C@@H](F)C8)c7F)c(-c7ccncc7)n6)nc5)CC4)CC3)nc2)C(=O)N1 (mixture of isomers)" readout_kind=Dmax observed_result="> 70%"
molecule=C[C@@H]1CN(c2ccc(-n3cc(-c4cc(Cl)cc(NS(=O)(=O)N5CC[C@@H](F)C5)c4F)c(-c4ccncc4)n3)cc2)CCN1CC1CCN(c2ccc([C@H]3CCC(=O)NC3=O)cc2)CC1 readout_kind=Dmax observed_result="30 to 70%"
molecule="CCCS(=O)(=O)Nc1cc(Cl)cc(-c2cn(-c3ccc(N4CCN(CC5CCN(c6ccc(C7CCC(=O)NC7=O)cn6)CC5)[C@@H](C)C4)cc3)nc2-c2ccncc2)c1F (mixture of isomers)" readout_kind=Dmax observed_result="30 to 70%"
molecule=O=C1CC[C@H](c2ccc(N3CCC(CN4CCN(c5ccc(-n6cc(-c7cc(Cl)cc(NS(=O)(=O)N8CC(F)C8)c7F)c(-c7ccncc7)n6)c(F)c5)CC4)CC3)cc2)C(=O)N1 readout_kind=Dmax observed_result="30 to 70%"
molecule=O=C1CC[C@H](c2ccc(N3CCC(CN4CCN(c5ccc(-n6cc(-c7cc(Cl)cc(NS(=O)(=O)N8CCCC8)c7F)c(-c7ccncc7)n6)nc5)CC4)CC3)cc2)C(=O)N1 readout_kind=Dmax observed_result="> 70%"
molecule="CCN(C)S(=O)(=O)Nc1cc(F)cc(-c2cn(-c3ccc(N4CCN(CC5CCN(c6ccc(C7CCC(=O)NC7=O)cn6)CC5)CC4)cc3)nc2-c2ccncc2)c1F (racemic)" readout_kind=Dmax observed_result="> 70%"
